For each entry below, report its Area ratio: Proline ester compound value.
# MEASUREMENT PROTOCOL: Stability test (storage in isopropyl myristate, HPLC peak area ratio)
# Assay type: physicochemical
# MEASUREMENT CONTEXT: storage at 60° C. for 1 week, HPLC peak area ratio

Here is how some compounds turned out for Area ratio: Proline ester compound.
C[C@H](N[C@@H](CCc1ccccc1)C(=O)O)C(=O)N1CCC[C@H]1C(=O)OCCCCO [Inventive Compound 3]	94.4%
C[C@H](N[C@@H](CCc1ccccc1)C(=O)O)C(=O)N1CCC[C@H]1C(=O)OCCCO [Inventive Compound 2]	96.7%
C[C@H](N[C@@H](CCc1ccccc1)C(=O)O)C(=O)N1CCC[C@H]1C(=O)OCCO [Inventive Compound 1]	91.8%
COCCOCCOC(=O)[C@@H]1CCCN1C(=O)[C@H](C)N[C@@H](CCc1ccccc1)C(=O)O [Inventive Compound 5]	94.2%

Turning now to a further compound:
Give reported Area ratio: Proline ester compound value for COCCOC(=O)[C@@H]1CCCN1C(=O)[C@H](C)N[C@@H](CCc1ccccc1)C(=O)O [Inventive Compound 4]
99.1%
